biological target: hERG potassium channels (Homo sapiens); test: In vitro hERG assay (SyncroPatch whole-cell recording); settings: hERG IC50, SyncroPatch, room temperature
Sequence (Q12809 whole entry): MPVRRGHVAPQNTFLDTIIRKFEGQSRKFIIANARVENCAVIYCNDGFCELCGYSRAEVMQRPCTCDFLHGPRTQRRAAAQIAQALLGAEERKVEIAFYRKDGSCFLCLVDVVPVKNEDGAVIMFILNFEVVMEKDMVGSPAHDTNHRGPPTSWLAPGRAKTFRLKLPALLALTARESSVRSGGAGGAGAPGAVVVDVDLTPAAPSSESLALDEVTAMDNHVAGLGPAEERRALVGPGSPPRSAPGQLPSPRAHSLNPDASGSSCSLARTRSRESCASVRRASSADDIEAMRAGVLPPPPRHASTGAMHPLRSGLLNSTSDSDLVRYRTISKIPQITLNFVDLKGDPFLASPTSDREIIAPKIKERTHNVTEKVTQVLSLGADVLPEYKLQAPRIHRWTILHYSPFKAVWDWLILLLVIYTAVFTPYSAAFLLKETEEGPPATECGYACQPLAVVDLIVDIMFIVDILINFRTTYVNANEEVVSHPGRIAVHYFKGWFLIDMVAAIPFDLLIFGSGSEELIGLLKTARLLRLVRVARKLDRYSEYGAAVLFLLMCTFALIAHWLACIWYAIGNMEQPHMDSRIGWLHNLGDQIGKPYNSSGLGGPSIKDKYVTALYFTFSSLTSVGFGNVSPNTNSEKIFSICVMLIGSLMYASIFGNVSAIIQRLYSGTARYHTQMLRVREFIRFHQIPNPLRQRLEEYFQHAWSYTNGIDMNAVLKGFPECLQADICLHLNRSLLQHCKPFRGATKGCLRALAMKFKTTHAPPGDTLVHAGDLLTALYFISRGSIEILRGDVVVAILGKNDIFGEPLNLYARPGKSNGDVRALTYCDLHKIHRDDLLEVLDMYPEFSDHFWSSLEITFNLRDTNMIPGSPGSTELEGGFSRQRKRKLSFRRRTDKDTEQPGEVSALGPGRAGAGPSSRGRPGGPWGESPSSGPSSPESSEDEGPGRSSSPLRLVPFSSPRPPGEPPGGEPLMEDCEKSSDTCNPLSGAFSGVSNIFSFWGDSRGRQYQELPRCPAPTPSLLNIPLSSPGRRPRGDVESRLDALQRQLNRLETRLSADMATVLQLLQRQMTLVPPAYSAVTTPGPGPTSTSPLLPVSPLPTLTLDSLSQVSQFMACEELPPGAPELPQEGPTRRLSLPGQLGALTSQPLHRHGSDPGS
pIC50: −log10 of the molar value.
quantity measured: pIC50

{"molecule": "CNc1cc(C)nc(Nc2cc3c(c(C4=CCNCCC4)c2)OCC3)n1", "quantity measured": "pIC50", "test result": "< 5.00"}
{"molecule": "CNc1cc(C)nc(Nc2cc3c(c(C4=CCNC(C)CC4)c2F)OCC3)n1 (single isomer, unassigned)", "quantity measured": "pIC50", "test result": "< 5.00"}
{"molecule": "CNc1cc(C)nc(Nc2cc3c(c(C4=CCNCCC4)c2)OCCO3)n1", "quantity measured": "pIC50", "test result": "5.30 to 5.70"}
{"molecule": "CNc1cc(C)nc(Nc2cc3c(c(OCCCN4CCCC4)c2)OCC3)n1", "quantity measured": "pIC50", "test result": "< 5.00"}

###

target: human EHMT1 982-1266 (Homo sapiens, UniProt Q9H9B1); experiment: EHMT1 enzyme assay on histone peptide substrate (3H-SAM SPA); conditions: EHMT1 IC50, recombinant human EHMT1 982-1266, histone peptide substrate
Sequence (Q9H9B1 982-1266): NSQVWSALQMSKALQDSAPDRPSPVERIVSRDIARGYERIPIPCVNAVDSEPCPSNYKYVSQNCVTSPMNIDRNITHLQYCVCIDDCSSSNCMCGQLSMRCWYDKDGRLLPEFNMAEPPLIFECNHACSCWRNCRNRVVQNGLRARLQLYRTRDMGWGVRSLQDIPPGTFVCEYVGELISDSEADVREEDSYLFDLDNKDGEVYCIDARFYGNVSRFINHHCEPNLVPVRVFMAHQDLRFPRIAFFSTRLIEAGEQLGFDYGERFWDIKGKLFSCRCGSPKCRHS
pIC50: −log10 of the molar value.
Catalogue of pIC50 readings, one per entry.

{"compound": "CNc1nc(Nc2cc3c(c(C4=CCNCCC4)c2)OCC3)nc(C)c1C [Compound 287]", "pIC50": "> 7.00"}
{"compound": "CNc1cc(C)nc(Nc2cc3c(c(C4=CCNC(C)CC4)c2C)OCC3)n1 (single isomer, unassigned) [Compound 383]", "pIC50": "> 7.00"}
{"compound": "[2H]Cc1cc(NC([2H])([2H])[2H])nc(Nc2cc3c(c(C4=CCNCCC4)c2)OCCO3)n1 [Compound 216]", "pIC50": "> 7.00"}
{"compound": "COCCCNc1cc(C)nc(Nc2cc3c(c(C4=CCN(C)CCC4)c2)OCC3)n1 [Compound 298]", "pIC50": "> 7.00"}
{"compound": "CNc1cc(C)nc(Nc2cc3c(c(C4=CCNC(C)CC4)c2F)OCO3)n1 (single isomer, unassigned) [Compound 380]", "pIC50": "6.30 to 7.00"}
{"compound": "CNc1cc(C)nc(Nc2cc3c(c(C4CCCN(C)CC4)c2)OCC3)n1 (centres unmarked) [Compound 107]", "pIC50": "6.30 to 7.00"}
{"compound": "CNc1nc(Nc2cc3c(c(C4=CCNCCC4)c2)OCC3)nc(C)c1F [Compound 277]", "pIC50": "6.30 to 7.00"}
{"compound": "CNc1cc(C)nc(Nc2cc3c(c([C@H]4C[C@H]5CNC[C@H]5C4)c2)OCO3)n1 [Compound 342]", "pIC50": "6.30 to 7.00"}

###

Catalogue of pIC50 readings, one per entry.
System: H3K9me2 in HCT116 cells
Assay: HCT116 H3K9me2 in-cell western assay
Format: cell-based
Conditions: Homo sapiens, HCT-116, 72 h, HCT116 cells, 72 hours incubation; read-out: H3K9me2 ICW IC50
Protocol: HCT116 cell line was purchased from ATCC (Manassas, VA, USA). […] Penicillin-Streptomycin and heat inactivated fetal bovine serum were purchased from Hyclone (Logan, UT, USA). DPBS, Corning^R were purchased from VWR (Radnor, PA, USA). […] The average of the ratio values (800 nm/700 nm) for each well was calculated and used to determine the percentage for each test well in the plate. […] IC50 values were calculated using a non-linear regression of Prism.
pIC50: −log10 of the molar value.

{"chemical smiles": "CNc1nc(Nc2cc3c(c(C4=CCNCCC4)c2)OCC3)nc(C)c1F", "pIC50": "6.30 to 7.00"}
{"chemical smiles": "CNc1nc(Nc2cc3c(c(C4=CCN(C)CCC4)c2F)OCC3)nc(C)c1C", "pIC50": "> 7.00"}
{"chemical smiles": "CNc1nc(Nc2cc3c(c(C4=CCNCCC4)c2F)OCCO3)nc(C)c1F", "pIC50": "6.30 to 7.00"}
{"chemical smiles": "CCNc1nc(Nc2cc3c(c(C4=CCNCCC4)c2F)OCC3)nc(C)c1F", "pIC50": "6.30 to 7.00"}
{"chemical smiles": "CNc1cc(C)nc(Nc2cc3c(c(C4=CCNCC4)c2)OCCC3)n1", "pIC50": "6.30 to 7.00"}

###

tested on: H3K9me2 in HCT116 cells; assay: HCT116 H3K9me2 in-cell western assay; format: cell-based; conditions: Homo sapiens, HCT-116, 72 h, HCT116 cells, 72 hours incubation; read-out: H3K9me2 ICW IC50
pIC50: −log10 of the molar value.

{"chemical smiles": "CNc1cc(C)nc(Nc2cc3c(c(C4=CCNCCC4)c2)OCC3)n1", "pIC50": "> 7.00"}
{"chemical smiles": "[2H]Cc1nc(Nc2cc3c(c(C4=CCNCCC4)c2)OCO3)nc(NC([2H])([2H])[2H])c1F", "pIC50": "6.30 to 7.00"}
{"chemical smiles": "[2H]C([2H])([2H])Nc1cc(C)nc(Nc2cc3c(c(C4=CCNCCC4)c2)OCC3)n1", "pIC50": "> 7.00"}
{"chemical smiles": "[2H]Cc1nc(Nc2cc3c(c(C4=CCNCCC4)c2)OCO3)nc(NCC([2H])([2H])[2H])c1F", "pIC50": "5.70 to 6.30"}
{"chemical smiles": "CNc1nc(Nc2cc3c(c(C4=CCNCCC4)c2)OCC3)nc(C)c1C", "pIC50": "> 7.00"}
{"chemical smiles": "CNc1cc(C)nc(Nc2cc(OCCCN3CCCC3)c3c(c2)OCO3)c1", "pIC50": "5.70 to 6.30"}
{"chemical smiles": "[2H]C([2H])([2H])Nc1cc(C)nc(Nc2cc3c(c(C4=CCNCCC4)c2)OCO3)n1", "pIC50": "> 7.00"}
{"chemical smiles": "Cc1cc(NC2COC2)cc(Nc2cc3c(c(C4=CCN(C)CCC4)c2)OCC3)n1", "pIC50": "5.70 to 6.30"}

###

target: human EHMT1 982-1266 (Homo sapiens, UniProt Q9H9B1); assay: EHMT1 enzyme assay on histone peptide substrate (3H-SAM SPA); conditions: EHMT1 IC50, recombinant human EHMT1 982-1266, histone peptide substrate

{"molecule": "Cc1cc(NC2CCCC2)nc(Nc2cc3c(c(OCCCN4CCCC4)c2)OCC3)n1", "IC50": "0.5 to 2 µM"}
{"molecule": "CNc1cc(C)nc(Nc2cc3c(c(C4=CCNCC(O)C4)c2C)OCCC3)n1 (single isomer, unassigned) [Compound 355]", "IC50": "< 0.1 µM"}
{"molecule": "CNc1cc(C)nc(Nc2cc(OCCCN3CCCC3)c3c(c2)OC(F)(F)O3)n1", "IC50": "< 0.1 µM"}
{"molecule": "[2H]Cc1nc(Nc2cc3c(c(C4=CCNCCC4)c2)OCC3)nc(NCC([2H])([2H])[2H])c1F", "IC50": "0.1 to 0.5 µM"}
{"molecule": "[2H]Cc1nc(Nc2cc3c(c(C4=CCNCCC4)c2)OCO3)nc(NC([2H])([2H])[2H])c1F", "IC50": "0.1 to 0.5 µM"}
{"molecule": "CNc1cc(C)nc(Nc2cc3c(c(N4C[C@H]5CNC[C@H]5C4)c2)OCC3)n1", "IC50": "0.5 to 2 µM"}
{"molecule": "CNc1cc(C)nc(Nc2cc3c(c(C4=CCNCCC4)c2C)OCO3)n1", "IC50": "< 0.1 µM"}
{"molecule": "[2H]C([2H])([2H])CNc1cc(C)nc(Nc2cc3c(c(C4=CCN(C)CCC4)c2F)OCC3)n1", "IC50": "< 0.1 µM"}
{"molecule": "[2H]C([2H])([2H])CNc1cc(C)nc(Nc2cc3c(c(C4=CCN(C)CCC4)c2)OCCC3)n1", "IC50": "< 0.1 µM"}
{"molecule": "CNc1cc(C)nc(Nc2cc3c(c(C4=CCNCC(OC)C4)c2F)OCC3)n1 (single isomer, unassigned) [Compound 366-a]", "IC50": "0.5 to 2 µM"}
{"molecule": "CNc1cc(C)nc(Nc2cc3c(c(C4CCCNCC4)c2)OCCO3)n1 (stereo not shown)", "IC50": "0.1 to 0.5 µM"}
{"molecule": "CNc1cc(C)nc(Nc2cc3c(c(C4=CCN(C)CCC4)c2F)OCC3)n1", "IC50": "< 0.1 µM"}
{"molecule": "[2H]Cc1nc(Nc2cc3c(c(C4=CCNCCC4)c2)OCC3)nc(NC([2H])([2H])[2H])c1F", "IC50": "0.1 to 0.5 µM"}
{"molecule": "Cc1cc(NCC(F)(F)F)nc(Nc2cc3c(c(C4=CCNCCC4)c2)OCC3)n1", "IC50": "< 0.1 µM"}
{"molecule": "[2H]Cc1cc(NC([2H])([2H])[2H])nc(Nc2cc3c(c(C4=CCN(C)CCC4)c2)OCCO3)n1", "IC50": "< 0.1 µM"}
{"molecule": "COCCNc1cc(C)nc(Nc2cc3c(c(C4=CCNCCC4)c2F)OCC3)n1", "IC50": "< 0.1 µM"}
{"molecule": "CNc1cc(C)nc(Nc2cc3c(c(C4=CCN(C)CCC4)c2F)OCO3)n1", "IC50": "< 0.1 µM"}
{"molecule": "CNc1cc(C)nc(Nc2cc3c(c(C4=CCNC[C@H](O)C4)c2F)OC[C@H]3C)n1 (stereo in doubt)", "IC50": "< 0.1 µM"}
{"molecule": "CNc1cc(C)nc(Nc2cc3c(c(C4=C[C@H]5CNC[C@H]5C4)c2)OCCO3)n1 (racemic)", "IC50": "0.1 to 0.5 µM"}
{"molecule": "CNc1cc(C)nc(Nc2cc3c(c(N4C[C@H]5CNC[C@H]5C4)c2F)OCC3)n1", "IC50": "< 0.1 µM"}
{"molecule": "[2H]Cc1nc(Nc2cc3c(c(C4=CCNCCC4)c2F)OCC3)nc(NC([2H])([2H])[2H])c1F", "IC50": "< 0.1 µM"}
{"molecule": "CNc1nc(Nc2cc3c(c(C4=CCNCCC4)c2F)OCCO3)nc(C)c1F", "IC50": "0.1 to 0.5 µM"}
{"molecule": "CNc1cc(C)nc(Nc2cc3c(c(C4=CCNC(C)CC4)c2Cl)OCO3)n1 (single isomer, unassigned) [Compound 356-a]", "IC50": "0.5 to 2 µM"}
{"molecule": "[2H]C([2H])([2H])Nc1cc(C)nc(Nc2cc3c(c(C4=CCN(C)CCC4)c2)OCC3)n1", "IC50": "< 0.1 µM"}
{"molecule": "[2H]C([2H])([2H])N1CC=C(c2c(F)c(Nc3nc(C)cc(NC)n3)cc3c2OCC3)CCC1", "IC50": "< 0.1 µM"}
{"molecule": "CNc1cc(C)nc(Nc2cc3c(c(C4=CCNC(C)CC4)c2Cl)OCCC3)n1 (single isomer, unassigned) [Compound 357]", "IC50": "< 0.1 µM"}
{"molecule": "CNc1cc(C)nc(Nc2cc3c(c(C4=CCN(C)CCC4)c2)OCCO3)c1", "IC50": "0.1 to 0.5 µM"}
{"molecule": "CNc1cc(C)nc(Nc2cc3c(c(C4=CCNCCC4)c2)OCO3)n1", "IC50": "< 0.1 µM"}
{"molecule": "CNc1nc(Nc2cc3c(c(C4=CCN(C)CCC4)c2F)OCC3)nc(C)c1F", "IC50": "0.1 to 0.5 µM"}
{"molecule": "[2H]C([2H])([2H])CNc1cc(C)nc(Nc2cc3c(c(C4=CCN(C)CCC4)c2)OCCO3)n1", "IC50": "0.1 to 0.5 µM"}
{"molecule": "CNc1nc(Nc2cc3c(c(C4=CCNCCC4)c2F)OCC3)nc(C)c1OC", "IC50": "< 0.1 µM"}
